# experimentalTarget: T1, Epstein-Barr virus BHRF1 a.a. 1-161 with C-terminal avi-6his tag (Epstein-Barr virus)
# T1 construct: also called EBV BHRF1; BHRF1-biotin
# T1 chain: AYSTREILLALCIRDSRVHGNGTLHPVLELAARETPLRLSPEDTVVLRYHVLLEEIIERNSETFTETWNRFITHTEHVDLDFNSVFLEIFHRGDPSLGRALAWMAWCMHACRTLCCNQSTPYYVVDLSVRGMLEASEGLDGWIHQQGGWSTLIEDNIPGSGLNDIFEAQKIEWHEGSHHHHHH
# assayExplanation: yeast display library, FACS sort at 100 nM BHRF1, deep sequencing
Please go through the items and note down their Log2 enrichment ratio.
Please state the figure in log2; there is no need to write the unit.

input: Fill in: Log2 enrichment ratio of Index 33 (designed binder) GKQWQEAFEEARRRIEEKAREFEDRAKKEALLHLFFIPHDKEIADNSKKWIAWALMLIGDIFNLEEEAAERARRHVKRGEISEDDAKQIRKRLQEQAKRAAWWMRYWGEESAKFAFIG is ___
output: -4.18

input: Fill in: Log2 enrichment ratio of Index 30 (designed binder) GSRWFDAEDKMRERKDRAILQLLFMLWIIFYILWYGDDTEEAKRKAMAAWIALALIGIGDIFNAEAEFLEELERAIKQGQVSDQLKEELLKRMEDDKRDLEKRLYEFLLKALLQWMQG is ___
output: -2.58

input: Fill in: Log2 enrichment ratio of Index 51 (designed binder) GWTALWLKDFTEQEARKKFREALYYGWMMAMRALEHQLQADELAMWTALWIAAMLEAIGDMFNDKLRAEKYALLLIWLNLYHKDIAEKWREEHEEKLKEALQEMFEAAEKFDKFAKFG is ___
output: -2.53

input: Fill in: Log2 enrichment ratio of Index 25 (designed binder) GANHEDAIWEALYKAEDAFKDHLKEIEIYREFSEKFWPLDDYKDNLRAHWIAAALAAIGDWFNVFFEAELKFREAKRKNLRSEDDIKKYRWRLFKALDIAIDLADRVGDEAEKAERLG is ___
output: -2.9
